Molecular target: c-Src SH2;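 note: peptide library displayed on the E. coli surface as eCPX fusions, selected cells deep-sequenced, score is each peptide's frequency after selection divided by its frequency in the input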
Assay: SH2 binding enrichment of the phosphorylated peptide, bacterial display (enrichment ratio); higher = better substrate or ligand; peptides without Tyr show the background
Threshold check on SH2 binding enrichment: at or above 0.7 gives 1, strictly below gives 0.

RESIDUES | LABEL_VALUE
RLVTRYIYNRE [HLA-DQB1_Y62_Y58L] | 0
ILTLKYPIEHG [ACTA1_Y71] | 0
RGNMFYENSFA [EGFR_Y113_YF] | 1
GGPAGYLRRAS [PKLR_Y38] | 0
ASLEAYCKHKF [RXRA_Y403_YF] | 1
RTTIHYNYMCN [TP53_Y234_C229R] | 1
PMQLPHDSTWE [PDGFRB_Y589_Y589H] | 0
LSQDVYEEDSY [RET_Y900_R897Q] | 0
LSQAKYQIRYR [CRLF1_Y272_F268S] | 0
HRGHLYLAIEY [TEK_Y899_Y897H] | 0
ENFDDYMKEVG [FABP4_Y20] | 1
IGNGFYFRVFS [MYBPC3_Y1136_YF] | 0
WPQKLYNNFVN [MYO5C_Y526_L522P] | 0
KSEKVYTRHGV [FLOT1_Y56] | 0
WVYNHYRCIIW [BRCA2_Y2624_W2626C] | 0
VIGRMYDFHVL [RPF2_Y109_YF] | 1
PAKPRYRARQR [KCNJ11_Y26_E23K] | 0
LEDDVYRKTCT [XPA_Y257_M256V] | 0
KPNMNYDKLSW [FLI1_Y332_R337W] | 1
CTTIHYNYMYN [TP53_Y234_C238Y] | 1
NTEGGYRCICA [CRELD1_Y328] | 0
MSDVPYVMNRG [ACAT1_Y161_N158D] | 0
RFLRGYQQDAF [HLA-A_Y137_R138Q_YF] | 0
NFHRGYHLQVL [CD200R1L_Y138] | 0

* * *

Molecular target: Fyn (UniProt P06241)
Sequence (P06241 whole entry, looked up): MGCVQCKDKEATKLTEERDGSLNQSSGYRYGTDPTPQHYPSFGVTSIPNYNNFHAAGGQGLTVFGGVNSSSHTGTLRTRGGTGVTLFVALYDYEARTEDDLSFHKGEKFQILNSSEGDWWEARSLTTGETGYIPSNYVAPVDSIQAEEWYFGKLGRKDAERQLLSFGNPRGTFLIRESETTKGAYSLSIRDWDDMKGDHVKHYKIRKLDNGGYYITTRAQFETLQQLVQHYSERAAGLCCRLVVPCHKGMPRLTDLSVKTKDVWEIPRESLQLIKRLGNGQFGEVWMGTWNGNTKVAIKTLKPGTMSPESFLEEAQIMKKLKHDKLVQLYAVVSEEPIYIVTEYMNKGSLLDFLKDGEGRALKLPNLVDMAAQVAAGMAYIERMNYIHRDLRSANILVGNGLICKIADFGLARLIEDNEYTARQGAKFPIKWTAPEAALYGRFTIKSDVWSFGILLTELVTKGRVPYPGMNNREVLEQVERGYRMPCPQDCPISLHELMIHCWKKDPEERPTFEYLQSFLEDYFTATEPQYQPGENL
Assay: phosphorylation enrichment, bacterial display (enrichment ratio); higher = better substrate or ligand; peptides without Tyr show the background
Threshold check on phosphorylation enrichment: at or above 0.5 gives 1.0, strictly below gives 0.0.

RESIDUES | LABEL_VALUE
LSIDRYHAIVF [NPSR1_Y147_YF] | 1.0
GGCQEYTGAPY [NAXD_Y85] | 1.0
RGNMFYENSFA [EGFR_Y113_YF] | 1.0
RRLEPYGENFN [APOA4_Y310_V307L] | 0.0
CSSPTYRDCLQ [LARGE2_Y682_R677C] | 0.0
SADIAYNYRHG [PAH_Y166_F161S] | 0.0
STEAIYWRFSK [SH3PXD2B_Y42_R43W_YF] | 1.0
GMTLSYLFREP [NDUFS8_Y74] | 0.0
AKIDGYITSFR | 0.0
QLHRKYCLSPR [HJURP_Y445_E444K] | 1.0
LNTFHYAGVSA [POLR2A_Y1109] | 0.0
LRWREYQRQDF [PRKRIP1_Y90_R87W_YF] | 1.0
FLAVGYHKPFI [IDS_Y225_H229Y_YF] | 0.0
PVDVAYRRGYF [PLEC_Y2967] | 1.0
FAFQLYDLDPD [CHP2_Y123_R127P_YF] | 1.0
LLGFLYFFVCS [SLC34A2_Y109] | 1.0
LLVVVYKYRCY [PSEN1_Y154_L153V] | 1.0
PEFVVYKPQME [CCRL2_Y170] | 1.0
YKTPIYPYLLP [PLD2_Y578_T577I] | 1.0
LDFNEYFRDLN [HPRT1_Y198_YF] | 0.0
VSTAVYKRFAS [BEST1_Y148_P152A] | 0.0
PEAALYGRFTI [FYN_Y440] | 1.0
APEVIYATPGA [ABLtide_2014] | 1.0
ADAGMYGVLPW [PLP1_Y207_R205G] | 1.0
TRFDEYLEVTK [MAP1A_Y2217_H2214Y_YF] | 1.0

Origin of measurements: the supplement of paper PMC10065799
